meta.source: patent US5693628A

- SYSTEM TESTED: glucocorticoid receptor (Rattus norvegicus)
- Construct: thymus cytosol of the adrenalectomized rat; from tissue; host or cells: thymus (cytosol) of adrenalectomized rat
- Sequence (P06536 whole entry): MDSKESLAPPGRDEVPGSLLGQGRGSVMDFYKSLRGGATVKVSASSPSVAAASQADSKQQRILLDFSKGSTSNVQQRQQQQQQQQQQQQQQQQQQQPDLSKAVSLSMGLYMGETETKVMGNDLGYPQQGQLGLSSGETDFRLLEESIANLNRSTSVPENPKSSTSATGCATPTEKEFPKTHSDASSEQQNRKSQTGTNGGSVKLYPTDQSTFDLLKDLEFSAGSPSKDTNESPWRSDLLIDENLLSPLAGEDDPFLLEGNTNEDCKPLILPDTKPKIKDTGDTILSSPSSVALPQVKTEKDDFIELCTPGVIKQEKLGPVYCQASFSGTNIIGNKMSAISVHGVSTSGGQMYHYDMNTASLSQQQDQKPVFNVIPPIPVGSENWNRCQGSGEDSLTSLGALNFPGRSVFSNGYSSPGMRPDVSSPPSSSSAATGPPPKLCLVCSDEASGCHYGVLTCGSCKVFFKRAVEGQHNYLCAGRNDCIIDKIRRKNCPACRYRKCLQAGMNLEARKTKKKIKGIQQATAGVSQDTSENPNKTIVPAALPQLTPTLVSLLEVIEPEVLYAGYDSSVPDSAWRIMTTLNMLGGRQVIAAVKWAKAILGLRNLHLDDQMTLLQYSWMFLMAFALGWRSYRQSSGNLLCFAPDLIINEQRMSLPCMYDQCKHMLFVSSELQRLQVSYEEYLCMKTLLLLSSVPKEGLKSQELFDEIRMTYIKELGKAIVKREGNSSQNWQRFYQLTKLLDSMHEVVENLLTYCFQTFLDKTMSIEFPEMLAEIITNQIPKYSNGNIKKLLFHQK
- ASSAY PROTOCOL: relative molar bonding affinity to glucocorticoid receptor (competitive bonding)
- Type: binding
- CONDITION SUMMARY: dexamethasone = 100%; thymus cytosol of adrenalectomized rat; 3H-dexamethasone, 20 nM; 18 h, 0-4° C.
Recorded relative molar bonding affinity (RBA) to glucocorticoid receptor, one value per entry.
METRIC: relative molar bonding affinity (RBA) to glucocorticoid receptor (%)

- COMPOUND: "CC#C[C@]1(O)CC[C@H]2[C@@H]3CCC4=CC(=O)CCC4=C3[C@@H](c3ccc(N(C)C)cc3)C[C@@]21C [RU 486, Mifepristone, reference compound]"
  ENDPOINT UNIT: "%"
  RECORDED VALUE: 685
- COMPOUND: "CN(C)c1ccc([C@H]2C[C@]3(C)[C@@H](CC[C@]3(O)CCCO)[C@@H]3CCC4=CC(=O)CCC4=C32)cc1 [ZK 98299, Onapristone, reference compound]"
  ENDPOINT UNIT: "%"
  RECORDED VALUE: 39
- COMPOUND: "C[C@]12C[C@H](c3ccc(C=NO)cc3)C3=C4CCC(=O)C=C4CC[C@H]3[C@@H]1CC[C@@]2(O)CCl"
  ENDPOINT UNIT: "%"
  RECORDED VALUE: 32

----------
- SYSTEM TESTED: progesterone receptor (Oryctolagus cuniculus)
- Construct: uterine cytosol of the estradiol-primed rabbit; from tissue; host or cells: uterus (cytosol) of estradiol-primed rabbit
- Sequence (P06186 whole entry): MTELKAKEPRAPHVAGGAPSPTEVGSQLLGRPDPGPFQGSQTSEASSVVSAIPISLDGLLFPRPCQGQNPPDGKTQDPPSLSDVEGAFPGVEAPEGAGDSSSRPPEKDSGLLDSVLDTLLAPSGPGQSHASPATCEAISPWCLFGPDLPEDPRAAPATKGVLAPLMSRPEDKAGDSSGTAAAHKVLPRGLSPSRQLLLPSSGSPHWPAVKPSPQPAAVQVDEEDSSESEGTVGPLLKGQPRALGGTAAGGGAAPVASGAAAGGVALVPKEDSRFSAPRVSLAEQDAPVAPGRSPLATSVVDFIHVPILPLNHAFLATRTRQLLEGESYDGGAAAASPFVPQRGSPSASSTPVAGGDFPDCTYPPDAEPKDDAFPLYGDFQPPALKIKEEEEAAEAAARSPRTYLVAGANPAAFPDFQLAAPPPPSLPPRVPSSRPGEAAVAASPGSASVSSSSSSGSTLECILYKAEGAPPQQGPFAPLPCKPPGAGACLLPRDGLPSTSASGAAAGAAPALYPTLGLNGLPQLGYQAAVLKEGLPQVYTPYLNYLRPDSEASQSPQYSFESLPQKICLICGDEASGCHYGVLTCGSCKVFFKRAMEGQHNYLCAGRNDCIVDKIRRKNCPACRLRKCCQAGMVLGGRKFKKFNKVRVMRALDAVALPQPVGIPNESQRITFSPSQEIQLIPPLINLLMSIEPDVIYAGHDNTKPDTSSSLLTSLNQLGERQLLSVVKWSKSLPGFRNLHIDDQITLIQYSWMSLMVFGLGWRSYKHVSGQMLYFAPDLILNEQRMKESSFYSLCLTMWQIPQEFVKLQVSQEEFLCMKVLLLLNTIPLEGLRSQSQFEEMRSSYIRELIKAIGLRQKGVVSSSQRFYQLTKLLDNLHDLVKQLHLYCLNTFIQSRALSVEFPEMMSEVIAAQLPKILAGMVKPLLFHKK
- ASSAY PROTOCOL: relative molar bonding affinity to progesterone receptor (competitive bonding)
- Assay type: binding
- CONDITION SUMMARY: progesterone = 100%; uterine cytosol of estradiol-primed rabbit; 3H-ORG 2058, 5 nM; 18 h, 0-4° C.
- Description: Measurement of bonding affinity for receptors Receptor bonding affinity was determined by competitive bonding of a specifically binding ^3 H labelled hormone (tracer) and the compound to be tested to receptors in the cytosol from animal target organs. It was tried to obtain receptor saturation and a balanced reaction. The following incubation conditions were selected: […] The IC50 for the compound to be tested and for the reference substance were determined from measurements in series of concentrations.
METRIC: relative molar bonding affinity (RBA) to progesterone receptor (%)

- COMPOUND STRUCTURE: "COC[C@]1(OC)CC[C@H]2[C@@H]3CCC4=CC(=O)CCC4=C3[C@@H](c3ccc(C=NOC(C)=O)cc3)C[C@@]21C"
  ENDPOINT UNIT: "%"
  RECORDED VALUE: 236
- COMPOUND STRUCTURE: "COC[C@]1(OC)CC[C@H]2[C@@H]3CCC4=CC(=O)CCC4=C3[C@@H](c3ccc(C=NOC)cc3)C[C@@]21C"
  ENDPOINT UNIT: "%"
  RECORDED VALUE: 136
- COMPOUND STRUCTURE: "CCOC(=O)ON=Cc1ccc([C@H]2C[C@@]3(C)[C@@H](CC[C@]3(COC)OC)[C@@H]3CCC4=CC(=O)CCC4=C32)cc1"
  ENDPOINT UNIT: "%"
  RECORDED VALUE: 294

----------
- SYSTEM TESTED: glucocorticoid receptor (Rattus norvegicus)
- Construct: thymus cytosol of the adrenalectomized rat; from tissue; host or cells: thymus (cytosol) of adrenalectomized rat
- ASSAY PROTOCOL: relative molar bonding affinity to glucocorticoid receptor (competitive bonding)
- Assay type: binding
- CONDITION SUMMARY: dexamethasone = 100%; thymus cytosol of adrenalectomized rat; 3H-dexamethasone, 20 nM; 18 h, 0-4° C.
Listing of recorded relative molar bonding affinity (RBA) to glucocorticoid receptor by entry.
METRIC: relative molar bonding affinity (RBA) to glucocorticoid receptor (%)

- COMPOUND STRUCTURE: "COC[C@]1(OC)CC[C@H]2[C@@H]3CCC4=CC(=O)CCC4=C3[C@@H](c3ccc(C=NOC(C)=O)cc3)C[C@@]21C"
  RECORDED VALUE: 73
- COMPOUND STRUCTURE: "CCOC(=O)ON=Cc1ccc([C@H]2C[C@@]3(C)[C@@H](CC[C@]3(COC)OC)[C@@H]3CCC4=CC(=O)CCC4=C32)cc1"
  RECORDED VALUE: 66
- COMPOUND STRUCTURE: "COC[C@]1(OC)CC[C@H]2[C@@H]3CCC4=CC(=O)CCC4=C3[C@@H](c3ccc(C=NO)cc3)C[C@@]21C"
  RECORDED VALUE: 78
- COMPOUND STRUCTURE: "COC[C@]1(OC)CC[C@H]2[C@@H]3CCC4=CC(=O)CCC4=C3[C@@H](c3ccc(C=NOC)cc3)C[C@@]21C"
  RECORDED VALUE: 82

----------
# Lookup of reported relative molar bonding affinity (RBA) to progesterone receptor keyed by entry
- SYSTEM TESTED: progesterone receptor (Oryctolagus cuniculus)
- Construct: uterine cytosol of the estradiol-primed rabbit; from tissue; host or cells: uterus (cytosol) of estradiol-primed rabbit
- ASSAY PROTOCOL: relative molar bonding affinity to progesterone receptor (competitive bonding)
- Assay type: binding
- CONDITION SUMMARY: progesterone = 100%; uterine cytosol of estradiol-primed rabbit; 3H-ORG 2058, 5 nM; 18 h, 0-4° C.
METRIC: relative molar bonding affinity (RBA) to progesterone receptor (%)

- COMPOUND: "COC[C@]1(OC)CC[C@H]2[C@@H]3CCC4=CC(=O)CCC4=C3[C@@H](c3ccc(C=NO)cc3)C[C@@]21C"
  ENDPOINT UNIT: "%"
  RECORDED VALUE: 302
- COMPOUND: "C[C@]12C[C@H](c3ccc(C=NO)cc3)C3=C4CCC(=O)C=C4CC[C@H]3[C@@H]1CC[C@@]2(O)CCl"
  ENDPOINT UNIT: "%"
  RECORDED VALUE: 90
- COMPOUND: "CN(C)c1ccc([C@H]2C[C@]3(C)[C@@H](CC[C@]3(O)CCCO)[C@@H]3CCC4=CC(=O)CCC4=C32)cc1 [ZK 98299, Onapristone, reference compound]"
  ENDPOINT UNIT: "%"
  RECORDED VALUE: 22
